target: Rabbit skeletal myosin; experiment: Skeletal muscle myosin II actin-activated ATPase assay; conditions: 20 nM skeletal muscle myosin II; read-out: SKMMII KI
pKi: −log10 of the molar value.
Would you please tag the item label 1 when its pKi is 6 or above, and label 0 when it is below?

                               sample_smiles  group_label
 0  O=C1c2c(sc3c2CCCC3)N=C2N(c3ccccc3)CC[C@@]12O      label 0
 1  Cc1cc2cc(N3CC[C@@]4(O)C(=O)c5cc(C)c(C)cc5N=C34)ccc2cn1      label 1
 2  Cc1cc2c(cc1C)C(=O)[C@]1(O)CCN(c3ccc4ncncc4c3)C1=N2      label 0
 3  COc1ccc(N2CC[C@@]3(O)C(=O)c4c(sc(C)c4C)N=C23)cc1      label 1
 4  Cc1cc2c(cc1C)C(=O)[C@]1(O)CCN(c3ccc4c(c3)OCCC4)C1=N2      label 0
 5  COc1cccc(N2CC[C@@]3(O)C(=O)c4cc(F)c(C)cc4N=C23)c1      label 0
 6  Cc1cc2c(cc1C)C(=O)[C@]1(O)CCN(c3ccc(C#N)c(C)c3)C1=N2      label 0
 7  Cc1ncc(N2CC[C@@]3(O)C(=O)c4cc(C(F)(F)F)ccc4N=C23)s1      label 0
 8  COc1cc(N2CC[C@@]3(O)C(=O)c4cc(F)c(C)cc4N=C23)ccn1      label 0
 9  Cc1cc(N2CC[C@@]3(O)C(=O)c4cc(C(F)(F)F)ccc4N=C23)on1      label 0
10  Cc1ccc2c(c1)C(=O)[C@]1(O)CCN(c3ccc(C#N)c(C)c3)C1=N2      label 0
11  Cc1cc2c(cc1C)C(=O)[C@]1(O)CCN(c3ccc4c(c3)COCCN4)C1=N2      label 0

###

assay: Photostability, percentage remaining undegraded under illumination or in the dark; conditions: percentage remaining undegraded after 4 hours illumination
measurement type: Photostability 4 hours

>>> print(df.to_string())
                                   compound  reported
0  O=C1c2c(sc3c2CCCC3)N=C2N(c3ccccc3)CC[C@@]12O     97.7%
1  Cc1nc2cc(N3CC[C@@]4(O)C(=O)c5cc(F)c(C)cc5N=C34)ccc2o1     89.9%
2  Cc1ccc2c(c1)C(=O)[C@]1(O)CCN(c3ccc4cncn4c3)C1=N2     75.7%
3  O=C1c2c(sc3c2CCCC3)N=C2N(c3ccc4ncccc4c3)CC[C@@]12O     94.1%
4  Cc1cc2c(cc1C)C(=O)[C@]1(O)CCN(c3ccc4ncc(CN(C)C)cc4c3)C1=N2     77.8%
5  COc1cc(N2CC[C@@]3(O)C(=O)c4cc(Cl)ccc4N=C23)ccn1     93.3%
6  Cc1cc2c(cc1C)C(=O)[C@]1(O)CCN(c3cccc(Br)c3)C1=N2     87.4%
7  Cc1cc2c(cc1F)C(=O)[C@]1(O)CCN(c3ccccc3)C1=N2 [BPN-0026669]     87.8%

###

target: Bovine cardiac myosin (Bos taurus (Bovine)); experiment: Cardiac muscle myosin II actin-activated ATPase assay (NADH-coupled); type: biochemical; conditions: 300 nM cardiac myosin, 10 μM actin, 25° C.; read-out: CMMII KI
Sequence (Q9BE39 whole entry): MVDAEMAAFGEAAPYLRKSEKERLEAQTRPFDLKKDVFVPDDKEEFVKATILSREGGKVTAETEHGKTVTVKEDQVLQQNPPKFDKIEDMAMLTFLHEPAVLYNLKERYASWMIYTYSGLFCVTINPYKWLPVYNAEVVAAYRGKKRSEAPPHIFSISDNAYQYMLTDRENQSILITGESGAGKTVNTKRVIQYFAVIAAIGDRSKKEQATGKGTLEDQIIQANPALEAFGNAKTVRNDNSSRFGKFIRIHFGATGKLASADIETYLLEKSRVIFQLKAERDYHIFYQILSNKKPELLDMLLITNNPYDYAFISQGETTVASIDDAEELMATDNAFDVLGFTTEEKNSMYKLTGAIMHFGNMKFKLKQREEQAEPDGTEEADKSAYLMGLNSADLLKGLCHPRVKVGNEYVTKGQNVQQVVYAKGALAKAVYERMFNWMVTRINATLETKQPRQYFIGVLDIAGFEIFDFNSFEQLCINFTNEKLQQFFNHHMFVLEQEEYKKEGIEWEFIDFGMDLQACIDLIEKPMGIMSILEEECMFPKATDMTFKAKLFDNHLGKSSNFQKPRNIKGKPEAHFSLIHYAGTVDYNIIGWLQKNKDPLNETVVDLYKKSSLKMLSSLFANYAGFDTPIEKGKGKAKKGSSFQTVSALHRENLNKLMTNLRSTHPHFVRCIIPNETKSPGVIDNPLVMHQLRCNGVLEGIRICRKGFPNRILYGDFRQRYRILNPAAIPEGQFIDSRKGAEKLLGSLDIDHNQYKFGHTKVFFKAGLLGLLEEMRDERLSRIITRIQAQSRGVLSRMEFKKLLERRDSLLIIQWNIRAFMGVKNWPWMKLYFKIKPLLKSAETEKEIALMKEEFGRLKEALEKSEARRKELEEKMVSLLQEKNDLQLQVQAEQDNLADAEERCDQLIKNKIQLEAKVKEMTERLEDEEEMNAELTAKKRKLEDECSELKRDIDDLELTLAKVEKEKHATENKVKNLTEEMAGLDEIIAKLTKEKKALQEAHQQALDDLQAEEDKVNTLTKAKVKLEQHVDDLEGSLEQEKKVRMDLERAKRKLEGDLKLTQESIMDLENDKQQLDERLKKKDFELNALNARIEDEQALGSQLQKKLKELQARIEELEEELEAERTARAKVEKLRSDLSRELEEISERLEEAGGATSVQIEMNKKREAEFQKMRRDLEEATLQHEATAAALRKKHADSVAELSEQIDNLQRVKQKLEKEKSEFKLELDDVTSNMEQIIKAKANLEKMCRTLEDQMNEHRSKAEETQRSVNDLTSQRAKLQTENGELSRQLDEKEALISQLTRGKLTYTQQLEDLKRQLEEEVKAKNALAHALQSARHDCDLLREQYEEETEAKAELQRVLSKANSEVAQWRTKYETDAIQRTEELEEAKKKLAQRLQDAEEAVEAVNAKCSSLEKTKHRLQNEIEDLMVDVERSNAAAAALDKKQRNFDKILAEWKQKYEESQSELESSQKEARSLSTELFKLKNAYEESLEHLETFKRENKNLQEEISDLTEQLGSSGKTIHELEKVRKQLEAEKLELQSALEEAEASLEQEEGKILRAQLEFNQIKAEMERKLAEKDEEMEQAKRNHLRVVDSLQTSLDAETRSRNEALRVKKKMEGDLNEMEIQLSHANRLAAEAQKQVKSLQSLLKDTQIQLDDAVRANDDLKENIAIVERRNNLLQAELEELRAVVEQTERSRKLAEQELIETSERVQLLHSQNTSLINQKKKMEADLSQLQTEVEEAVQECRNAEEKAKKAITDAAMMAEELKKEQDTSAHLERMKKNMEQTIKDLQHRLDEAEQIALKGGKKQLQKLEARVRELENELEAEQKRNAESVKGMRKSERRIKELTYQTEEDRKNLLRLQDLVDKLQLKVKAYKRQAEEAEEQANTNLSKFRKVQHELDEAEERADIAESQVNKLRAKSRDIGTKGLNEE
Sequence (P85100 whole entry partner): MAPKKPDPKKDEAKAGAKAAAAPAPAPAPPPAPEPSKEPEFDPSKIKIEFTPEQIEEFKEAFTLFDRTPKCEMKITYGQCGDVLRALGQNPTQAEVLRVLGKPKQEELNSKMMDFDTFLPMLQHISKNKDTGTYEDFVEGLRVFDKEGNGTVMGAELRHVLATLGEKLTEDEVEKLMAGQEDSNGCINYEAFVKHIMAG
Sequence (Q3SZE5 whole entry partner): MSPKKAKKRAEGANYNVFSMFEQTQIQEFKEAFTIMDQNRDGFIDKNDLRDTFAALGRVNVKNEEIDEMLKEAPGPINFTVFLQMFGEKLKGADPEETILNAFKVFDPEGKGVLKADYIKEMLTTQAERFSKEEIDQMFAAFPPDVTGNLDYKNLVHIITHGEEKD
Field 'label' (enum: yes (1) / no (0)). Set to yes (1) when Ki is strictly under 20 µM; else no (0).

>>> print(df.to_string())
                                   molecule  group_label
0  Cc1cc2c(cc1C)C(=O)[C@]1(O)CCN(c3cnc(C#N)c(C)c3)C1=N2 [BPN-0028760]      yes (1)
1  COc1ccc(N2CC[C@@]3(O)C(=O)c4cc(C(F)(F)F)ccc4N=C23)cc1 [BPN-0026393]      yes (1)
2  Cc1ccc(N2CC[C@@]3(O)C(=O)c4cc(Cl)ccc4N=C23)cc1 [BPN-0026609]      yes (1)
3  Cc1cc2c(cc1C)C(=O)[C@]1(O)CCN(c3cnc4sccc4c3)C1=N2 [BPN-0027489]       no (0)
4  Cc1ccc2c(c1)C(=O)[C@]1(O)CCN(c3ccn4nccc4c3)C1=N2 [BPN-0027396]      yes (1)
5  COc1cccc(N2CC[C@@]3(O)C(=O)c4cc(C)c(C)cc4N=C23)c1 [BPN-0026496]       no (0)
6  Cc1cc2c(cc1C(F)(F)F)N=C1N(c3ccccc3)CC[C@@]1(O)C2=O [BPN-0026648]       no (0)
7  Cc1cc2c(cc1C)C(=O)[C@]1(O)CCN(c3ccc4nc(C)c(C)cc4c3)C1=N2 [BPN-0028868]       no (0)

###

test: Photostability, percentage remaining undegraded under illumination or in the dark; settings: percentage remaining undegraded after 4 hours illumination
Field 'label' (enum: True / False). Set to True when Photostability 4 hours is strictly under 90%; else False.

>>> print(df.to_string())
                                    compound  group_label
 0  COc1ccc(N2CC[C@@]3(O)C(=O)c4cc(C)c(C)cc4N=C23)cn1         True
 1  Cc1cc2c(cc1C)C(=O)[C@]1(O)CCN(c3ccc4c(c3)CCCC4)C1=N2         True
 2  COc1ccc(N2CC[C@@]3(O)C(=O)c4c(sc(C)c4C)N=C23)cc1         True
 3  Cc1cc2c(cc1C)C(=O)[C@]1(O)CCN(c3cnc(C)c(C)c3)C1=N2 [BPN-0028731]         True
 4  Cc1sc2c(c1C)C(=O)[C@]1(O)CCN(c3ccc(I)cc3)C1=N2        False
 5  Cc1cc2c(cc1C(F)(F)F)N=C1N(c3ccccc3)CC[C@@]1(O)C2=O        False
 6  CCc1nc2cc(N3CC[C@@]4(O)C(=O)c5cc(C)c(C)cc5N=C34)ccc2s1         True
 7  CCc1cc2c(s1)N=C1N(c3ccc(Cl)cc3)CC[C@@]1(O)C2=O        False
 8  Cc1cc2c(cc1C)C(=O)[C@]1(O)CCN(c3ccc4ncncc4c3)C1=N2        False
 9  Cc1ccc2c(c1)C(=O)[C@]1(O)CCN(c3ccc4sccc4c3)C1=N2         True
10  Cc1ccc2c(c1)C(=O)[C@]1(O)CCN(c3ccc(CO)c(Cl)c3)C1=N2        False
11  Cc1ccc2c(c1)C(=O)[C@]1(O)CCN(c3ccc4nc(N)ccc4c3)C1=N2         True
12  Cc1cc2c(cc1C)C(=O)[C@]1(O)CCN(c3ccc4nc(C)c(C)cc4c3)C1=N2         True
13  Cc1cc2c(s1)C(=O)[C@]1(O)CCN(c3ccc(C)c(Cl)c3)C1=N2        False
14  COc1cccc(N2CC[C@@]3(O)C(=O)c4cc(C)c(C)cc4N=C23)c1 [BPN-0026497]         True

###

// reported Ki per item
target: Rabbit skeletal myosin; experiment: Skeletal muscle myosin II actin-activated ATPase assay; settings: 20 nM skeletal muscle myosin II; read-out: SKMMII KI
measurement type: Ki (nM)

>>> df
                                   compound  measurement_type  reported
0  CCc1cc(N2CC[C@@]3(O)C(=O)c4cc(C)c(C)cc4N=C23)ccn1 [BPN-0028864]                Ki     12000
1  Cc1ccc2c(c1)C(=O)[C@]1(O)CCN(c3ccc4ncc(N)cc4c3)C1=N2 [BPN-0028652]                Ki      1300
2  Cc1ccc2c(c1)C(=O)[C@]1(O)CCN(c3ccc4ncccc4c3)C1=N2 [BPN-0027040]                Ki      2600
3  COc1ncc(N2CC[C@@]3(O)C(=O)c4cc(C)c(C)cc4N=C23)cc1Cl [BPN-0028820]                Ki      3000

###

assay: Photostability, percentage remaining undegraded under illumination or in the dark; details: percentage remaining undegraded after 4 hours illumination
Field 'label' (enum: label 1 / label 0). Set to label 1 when Photostability 4 hours is strictly under 90%; else label 0.

>>> print(df.to_string())
                                    molecule  group_label
 0  N#Cc1ccc(N2CC[C@@]3(O)C(=O)c4cc(C(F)(F)F)ccc4N=C23)cc1      label 1
 1  O=C1c2cc(C(F)(F)F)ccc2N=C2N(c3ccc4ncsc4c3)CC[C@@]12O      label 1
 2  Cc1ccc2c(c1)C(=O)[C@]1(O)CCN(c3ccc4c(C)noc4c3)C1=N2      label 0
 3  COc1cc(N2CC[C@@]3(O)C(=O)c4cc(F)c(C)cc4N=C23)ccn1      label 0
 4  COc1ccc2cc(N3CC[C@@]4(O)C(=O)c5cc(C)ccc5N=C34)ccc2n1      label 1
 5  Cc1cc(N2CC[C@@]3(O)C(=O)c4cc(C)c(C(F)(F)F)cc4N=C23)on1      label 0
 6  Cc1cc2cc(N3CC[C@@]4(O)C(=O)c5cc(C)c(C)cc5N=C34)ccc2cn1      label 1
 7  Cc1cc2c(cc1F)C(=O)[C@]1(O)CCN(c3cnn(C)c3)C1=N2      label 1
 8  Cc1cc2c(cc1C)C(=O)[C@]1(O)CCN(c3cnc(C)c(C)c3)C1=N2 [BPN-0028694]      label 1
 9  Cc1ccc2c(c1)C(=O)[C@]1(O)CCN(c3cc4ncccc4s3)C1=N2      label 1
10  Cc1cccc(N2CC[C@@]3(O)C(=O)c4cc(C)c(C(F)(F)F)cc4N=C23)c1      label 0
11  Cc1cc2c(s1)C(=O)[C@]1(O)CCN(c3ccc(C#N)c(Cl)c3)C1=N2      label 0
